Recorded BRG1 Max % Inhibition values for a group of compounds are listed next.
- assay target: BRG-1 (Homo sapiens, UniProt P51532)
- Sequence (P51532 whole entry): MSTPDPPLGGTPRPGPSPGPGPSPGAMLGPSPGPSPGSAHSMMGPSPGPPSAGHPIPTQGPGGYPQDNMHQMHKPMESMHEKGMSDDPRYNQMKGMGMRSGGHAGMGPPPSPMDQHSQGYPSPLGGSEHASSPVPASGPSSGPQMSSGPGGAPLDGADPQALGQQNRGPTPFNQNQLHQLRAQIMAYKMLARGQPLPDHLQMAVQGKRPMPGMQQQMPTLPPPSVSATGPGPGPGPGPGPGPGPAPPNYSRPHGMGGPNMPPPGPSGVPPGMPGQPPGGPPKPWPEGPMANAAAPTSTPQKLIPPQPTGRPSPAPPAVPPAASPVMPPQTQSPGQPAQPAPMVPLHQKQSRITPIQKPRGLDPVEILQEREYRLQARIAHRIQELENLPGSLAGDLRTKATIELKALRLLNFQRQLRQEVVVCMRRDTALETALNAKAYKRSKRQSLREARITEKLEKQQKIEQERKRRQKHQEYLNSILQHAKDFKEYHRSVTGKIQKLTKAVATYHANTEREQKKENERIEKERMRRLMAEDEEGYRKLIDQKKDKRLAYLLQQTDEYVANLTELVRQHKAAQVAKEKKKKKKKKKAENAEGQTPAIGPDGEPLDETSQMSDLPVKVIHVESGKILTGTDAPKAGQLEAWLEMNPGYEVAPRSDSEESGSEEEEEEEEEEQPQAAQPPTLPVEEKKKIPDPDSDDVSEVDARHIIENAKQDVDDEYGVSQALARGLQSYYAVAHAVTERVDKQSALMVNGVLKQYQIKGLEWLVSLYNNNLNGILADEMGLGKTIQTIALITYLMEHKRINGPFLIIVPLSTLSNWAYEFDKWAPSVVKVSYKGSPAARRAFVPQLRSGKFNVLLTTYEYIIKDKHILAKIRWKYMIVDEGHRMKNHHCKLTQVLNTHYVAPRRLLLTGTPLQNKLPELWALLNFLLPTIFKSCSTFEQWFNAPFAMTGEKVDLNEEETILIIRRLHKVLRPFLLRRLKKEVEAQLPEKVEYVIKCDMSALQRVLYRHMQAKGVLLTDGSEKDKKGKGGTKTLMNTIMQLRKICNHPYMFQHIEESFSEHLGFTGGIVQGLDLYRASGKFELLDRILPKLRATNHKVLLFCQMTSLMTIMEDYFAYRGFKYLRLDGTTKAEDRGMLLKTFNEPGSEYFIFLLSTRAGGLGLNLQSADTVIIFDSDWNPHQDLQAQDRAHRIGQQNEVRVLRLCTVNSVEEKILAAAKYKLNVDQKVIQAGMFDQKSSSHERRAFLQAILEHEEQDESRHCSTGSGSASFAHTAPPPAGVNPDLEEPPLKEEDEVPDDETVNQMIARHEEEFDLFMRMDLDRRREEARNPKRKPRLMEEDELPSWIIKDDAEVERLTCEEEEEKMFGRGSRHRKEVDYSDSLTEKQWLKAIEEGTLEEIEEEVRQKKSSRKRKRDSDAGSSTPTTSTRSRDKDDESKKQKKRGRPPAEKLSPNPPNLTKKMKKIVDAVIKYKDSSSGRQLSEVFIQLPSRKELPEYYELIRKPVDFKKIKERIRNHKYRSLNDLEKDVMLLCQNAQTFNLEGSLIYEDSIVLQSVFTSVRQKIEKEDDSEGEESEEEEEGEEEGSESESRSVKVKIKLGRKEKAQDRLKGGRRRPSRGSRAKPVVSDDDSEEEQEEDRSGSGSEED
- experiment summary: ATPase catalytic activity of BRG-1 (ADP-Glo in vitro biochemical assay)
- stated conditions: Table 6

Example compounds with recorded BRG1 Max % Inhibition:
> print(dat)
                                chem.smiles  result
1  COc1cc(-c2cccc(-c3csc(NC(=O)CNC(=O)c4ccc(N)cc4)n3)c2)ccn1    >95%
2  CS(=O)(=O)c1ccc(-c2cccc(-c3csc(NC(=O)CNC(=O)c4ccc(N)cc4)n3)c2)cc1    >50%
3  Nc1ccc(C(=O)NCC(=O)Nc2nc(-c3cccc(-c4cccc(F)c4)c3)cs2)cc1    >80%

## Input Lab note: need BRG1 Max % Inhibition with BRG-1 (Homo sapiens, UniProt P51532) for entry CC(C)(N)c1cc(-c2cccc(-c3csc(NC(=O)CNC(=O)c4ccc(N)cc4)n3)c2)ccn1 , please look it up.
## Output >90%

## Input Recorded BRG1 Max % Inhibition for CSCC[C@H](NC(=O)c1ccc(N)cc1)C(=O)Nc1nc(-c2cc(C#N)cc(-c3ccccc3)c2)cs1 with BRG-1 (Homo sapiens, UniProt P51532), please?
## Output >95%

## Input Query BRG1 Max % Inhibition on BRG-1 (Homo sapiens, UniProt P51532) for CN(C)c1ccc(C(=O)NCC(=O)Nc2nc(-c3cccc(-c4ccncc4)c3)cs2)cc1
## Output >70%

## Input Kindly state the measured BRG1 Max % Inhibition obtained for NCCn1ccc(-c2cccc(-c3csc(NC(=O)CNC(=O)c4ccc(N)cc4)n3)c2)cc1=O with BRG-1 (Homo sapiens, UniProt P51532).
## Output >95%

Source of measurements: patent US11497752B2
